pIC50: −log10 of the molar value.
Below, pIC50 values reported for KIF18A (Homo sapiens (Human), UniProt Q8NI77) across several publications.
Binary call on pIC50: MET from 7 upward, NOT MET beneath that.

Example results:
• Cc1cc(-c2cn(-c3ccc(NS(=O)(=O)CCO)cc3N3CCC4(CC3)CC4)nn2)nc(N2CCO[C@@H](C)C2)n1 = MET
• O=S(=O)(CCO)Nc1ccc(/C(F)=C/c2cc(N3CCC(F)(F)CC3)c3ncccc3c2)c(N2CCC3(CC2)CC3)c1 = NOT MET
• Cc1cc(-c2cn(-c3ccc(NS(=O)(=O)CCO)cc3N3CCC4(CC3)CC4)nn2)nc(N2CCOCC2)n1 = MET
• CS(=O)(=O)Nc1ccc(C(=O)Nc2cn3ccnc3c(N3CCC(F)(F)CC3)n2)c(N2CCC3(CC2)CC3)c1 = MET
• CS(=O)(=O)Nc1ccc(C(=O)Nc2cn3c(F)cnc3c(N3CCC(F)(F)CC3)n2)c(N2CC3CCC(C3)C2)c1 = MET
• Cc1cc(N2CCC(F)(F)CC2)nc(-c2nnc(-c3ccc(NS(=O)(=O)CCO)cc3N3CCC4(CC3)CC4)o2)c1Cl = NOT MET
• CC1CCCC2(C(F)(F)F)CCN(CC2)c2cc(NS(=O)(=O)CCO)ncc2C(=O)Nc2cccc(n2)NC1 (single isomer, unassigned) = MET

Turning to the following compound.
Is the recorded value of pIC50 equal to or greater than 7 for this compound? Cn1ncc2cc(NC(=O)c3ccc(NS(C)(=O)=O)cc3N3CC4CCC(C4)C3)nc(N3CCC(F)(F)CC3)c21
MET
